# Assayed Target: BSA-MG glycation model (bovine serum albumin + methylglyoxal) (Bos taurus)
# Construct: purchased Merck Marker Pvt; Ltd. (Germany)
# Method: in vitro BSA-MG glycation model (fluorescence of AGE formation)
# Format: biochemical
# Stated Conditions: Antiglycation Activity IC50 ± SEM, BSA 10 mg/mL, methylglyoxal 14 mM, pH 7.4, 37° C., 9 days; test concentrations 1000-50 μM; triplicate; NA = not active
pIC50: −log10 of the molar value.
Measure: pIC50

a = O=C1Nc2ccccc2/C1=C\c1ccc(F)cc1
b = O=C1Nc2ccccc2/C1=C\c1ccc(Cl)cc1Cl
QUERY: Lowest pIC50? choose a or b The response must carry the label of the picked entry.
RESULT: b

---

# Assayed Target: BSA-MG glycation model (bovine serum albumin + methylglyoxal) (Bos taurus, UniProt P02769)
# Construct: purchased Merck Marker Pvt; Ltd. (Germany)
# Sequence (P02769 25-607): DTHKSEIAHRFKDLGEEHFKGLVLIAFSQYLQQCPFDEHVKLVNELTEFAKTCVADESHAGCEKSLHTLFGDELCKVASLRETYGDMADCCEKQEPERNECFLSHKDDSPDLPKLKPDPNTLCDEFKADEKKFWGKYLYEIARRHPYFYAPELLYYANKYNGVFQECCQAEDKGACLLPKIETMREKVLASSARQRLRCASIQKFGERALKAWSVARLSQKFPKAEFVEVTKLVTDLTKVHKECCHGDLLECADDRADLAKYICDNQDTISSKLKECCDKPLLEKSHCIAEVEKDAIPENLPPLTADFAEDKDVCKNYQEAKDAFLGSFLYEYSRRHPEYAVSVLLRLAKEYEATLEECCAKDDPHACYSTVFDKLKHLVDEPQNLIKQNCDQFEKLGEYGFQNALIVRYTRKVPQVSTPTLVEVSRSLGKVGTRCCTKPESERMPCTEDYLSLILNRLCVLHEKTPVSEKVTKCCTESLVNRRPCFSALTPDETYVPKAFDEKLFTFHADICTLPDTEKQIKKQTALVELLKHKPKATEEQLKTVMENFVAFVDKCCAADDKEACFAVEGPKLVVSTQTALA
# Method: in vitro BSA-MG glycation model (fluorescence of AGE formation)
# Format: biochemical
# Stated Conditions: bovine, 9 days, pH 7.4
pIC50: −log10 of the molar value.
# maps each entry to its pIC50

1) O=C1Nc2ccccc2/C1=C\c1cccc2ccccc12	3.34 to 3.71

Here `COc1ccccc1/C=C1/C(=O)Nc2ccccc21` was tested on BSA-MG glycation model (bovine serum albumin + methylglyoxal) (Bos taurus, UniProt P02769), and its pIC50 came to 3.34 to 3.71
